- Tested on: L1210
- Experiment description: Tested for ratio of maximal effective dose/the dose which gives 30% ILS against mouse leukemia L1210 cells
- Type: cell-based
Readout label: Therapeutic index

# Compound, Tgt, Recorded result
rows = [
    ("NC(=O)C1CCCN1C(=O)N(CCCl)N=O (centres undefined)", "L1210", 5.6),
    ("CN(CC(N)=O)C(=O)N(CCCl)N=O [SARCNU]", "L1210", 15.5),
    ("CC(O)C(NC(=O)N(CCCl)N=O)C(N)=O (centres undefined)", "L1210", 40),
    ("NC(=O)CCCNC(=O)N(CCCl)N=O", "L1210", 7.3),
    ("NC(=O)CC(NC(=O)N(CCCl)N=O)C(N)=O (centres undefined)", "L1210", 15.7),
    ("NC(=O)C(Cc1ccccc1)NC(=O)N(CCCl)N=O (centres undefined)", "L1210", 3.8),
    ("NC(=O)C(CO)NC(=O)N(CCCl)N=O (centres undefined)", "L1210", 40),
    ("CSCCC(NC(=O)N(CCCl)N=O)C(N)=O (centres undefined)", "L1210", 5.9),
    ("NC(=O)C(Cc1ccc(O)cc1)NC(=O)N(CCCl)N=O (centres undefined)", "L1210", 10),
    ("NC(=O)CNC(=O)N(CCCl)N=O", "L1210", 36.4),
    ("CC(C)C(NC(=O)N(CCCl)N=O)C(N)=O (centres undefined)", "L1210", 15.7),
    ("NC(=O)CCNC(=O)N(CCCl)N=O", "L1210", 15.2),
    ("CC(NC(=O)N(CCCl)N=O)C(N)=O (centres undefined)", "L1210", 14.3),
    ("CC(C)CC(NC(=O)N(CCCl)N=O)C(N)=O (centres undefined)", "L1210", 11.4),
]
